Quick reference: inhibition of the listed items.
# METHOD DESCRIPTION: inhibition of PrP 5' UTR reporter expression (AID 488862); note: 0 = median of the neutral control wells
# CONDITION DETAILS: cell-based PrP 5' UTR mRNA reporter, plate reader; stronger effect = higher value; concentration not given here
About 1,200 (0.35%) of roughly 340,000 compounds were called active. Many of the other results were omitted from the sample, so actives are more common in it than they were.
ENDPOINT LABEL: inhibition (%)

> print(dat)
                                    molecule  uom  observed.value
 1  COc1ccc(C(=O)Nc2cccc(NC(=O)c3ccc(OC)cc3OC)n2)c(OC)c1    %           -7.03
 2  Cc1noc(C)c1S(=O)(=O)Nc1ccc(C(=O)N2CCN(c3ccc(F)cc3)CC2)cc1    %            44.2
 3  O=C(COC(=O)c1ccccc1C(=O)N1CCN(c2ccccc2)CC1)NCc1ccccc1    %           -7.33
 4  Cc1ccc(C)c(NC(=O)COC(=O)c2nn(C)c(=O)c3ccccc23)c1    %           -7.85
 5  CCCn1nc(NS(=O)(=O)c2ccccc2)c2cc3cc(C)ccc3nc21    %           -7.37
 6  COc1ccc(NC(=O)CN(C)C(=O)c2ccc(NC3CC3)c([N+](=O)[O-])c2)cc1    %           -13.7
 7  Cc1cc(NC(=O)CCC(=O)N(CC(=O)NC2CCCC2)c2ccc(F)cc2)no1    %           -5.73
 8             O=C(Nc1ccc2c(c1)OCCO2)c1ccoc1    %           -45.1
 9  CS(=O)(=O)N(CC(=O)N1CCOCC1)c1ccc2c3c(cccc13)CC2    %           -19.4
10   CCOC(=O)c1c(/N=C/c2cc(C)ccc2O)sc2c1CCC2    %           -12.5
11  CS(=O)(=O)N1CCN(C(=O)c2cc3ccccc3oc2=O)CC1    %           -9.85
12  CCOC(=O)N1CCC(N2Cc3cccc(C(=O)Nc4c(C)cccc4CC)c3C2=O)CC1    %            -4.9
13  CCCc1ccc(OCC(O)CN2CCN(C(=O)OCC)CC2)cc1 (stereo not given)    %           -12.3
14             Cn1c(-c2ccccc2)c[n+]2c1CCCCC2    %           -9.16
15             O=C(Nc1ccc2c(c1)OCCO2)C1CCCC1    %            56.5
16  O=S(=O)(c1ccc(Br)cc1)c1nc(-c2ccccc2)oc1N1CCOCC1    %           -6.56
17  CCOc1cc(NS(=O)(=O)c2ccc(OC)cc2)c(OCC)cc1NC(C)=O    %            64.1
18  O=C(c1cccs1)n1nc(NCc2ccccc2)nc1NCc1ccccc1    %           -11.8
19            Cc1nonc1C(=O)N/N=C/c1ccc(O)cc1    %           -28.8
20  C/C(=N\NC(=O)c1cc2c(s1)CCC(C)C2)c1cccnc1 (stereo not given)    %            55.4
21   O=C(COC(=O)c1ncc(Cl)c(Cl)c1Cl)NCc1cccs1    %           -15.5
22  O=C(c1cc2sccc2n1Cc1ccc(F)cc1)N1CCc2ccccc21    %             -33
23  CC(=O)c1sc(NC(=O)CCN2C(=O)C3CC=CCC3C2=O)nc1-c1ccccc1 (stereo not given)    %           -19.1
24                CCCCNCCS(=O)(=O)NCc1ccccc1    %           -9.61
25                  Cn1c(=S)sc2ccc3ccccc3c21    %           -8.89
26  CCCOc1ccccc1C1CC(=O)Nc2cc3c(cc21)OCO3 (stereo not given)    %           -21.5
27  O=c1oc2ccccc2cc1-c1cn(-c2ccccc2)c(=S)[nH]1    %            65.9
28              CCCCNS(=O)(=O)CCNCc1ccccc1OC    %            60.7
29   COc1cc(SC)ccc1C(=O)N(Cc1ccccc1)c1ccccc1    %           -4.63
30  COc1cc(NS(=O)(=O)c2ccc(NC(=S)NC(=O)c3ccccc3)cc2)nc(OC)n1    %            1.17
31  CCOC(=O)c1c(C)n(C)c2ccc(OC)c(NC(=O)CN3CCC4(CC3)OCCO4)c12    %             -19
32       C/C(=C(\C#N)C(=O)NCCCN1CCOCC1)N(C)C    %           -31.6
33       CC(C)(C)c1ccc(/C=C2\SC(=O)N=C2N)cc1    %            36.2
34        Oc1ccccc1N1CCN(C(=S)NCc2ccccc2)CC1    %           -14.6
35  Cc1ccc(N(C(=O)C(F)(F)F)C(C(=O)NC2CCCCC2)c2ccncc2)cc1C (stereo not given)    %           -20.4
36  Cc1ccsc1C(=O)OCC(=O)c1cc(C)n(CC2CCCO2)c1C (stereo not given)    %            78.7
37  O=C(Nc1ccc(N2CCN(C(=O)C3CC3)CC2)cc1)c1cccs1    %           -16.9
38  COCC(C)n1c(C)cc(C(=O)CSc2cc(C)c3ccccc3n2)c1C (stereo not given)    %           -11.2
39  O=C(Nc1ccc2c(c1)OCO2)C1CC1(Cl)Cl (stereo not given)    %           -8.25
40      Oc1ccc(N2CCN(C(=S)NCc3ccccc3)CC2)cc1    %            87.9
41  CC[n+]1c(C)n(-c2ccccc2)c2ccc(NC(C)=O)cc21    %             -45
42  CC(C)C(NC(=O)OCc1ccccc1)C(=O)OCC(=O)N1C(C)CCCC1C (stereo not given)    %           -20.8
43  COc1ccc(C(=O)COC(=O)C(O)c2ccccc2)c(OC)c1 (stereo not given)    %           -34.1
44  COc1ccc(CCC(=O)Nc2ccc(Cl)c(S(=O)(=O)N3CCOCC3)c2)cc1OC    %           -6.15
45            COc1cc(SC)ccc1C(=O)Nc1nc(C)cs1    %              87
